- Target entity: CYP2A6 (Homo sapiens, UniProt P11509)
- Sequence (P11509 whole entry): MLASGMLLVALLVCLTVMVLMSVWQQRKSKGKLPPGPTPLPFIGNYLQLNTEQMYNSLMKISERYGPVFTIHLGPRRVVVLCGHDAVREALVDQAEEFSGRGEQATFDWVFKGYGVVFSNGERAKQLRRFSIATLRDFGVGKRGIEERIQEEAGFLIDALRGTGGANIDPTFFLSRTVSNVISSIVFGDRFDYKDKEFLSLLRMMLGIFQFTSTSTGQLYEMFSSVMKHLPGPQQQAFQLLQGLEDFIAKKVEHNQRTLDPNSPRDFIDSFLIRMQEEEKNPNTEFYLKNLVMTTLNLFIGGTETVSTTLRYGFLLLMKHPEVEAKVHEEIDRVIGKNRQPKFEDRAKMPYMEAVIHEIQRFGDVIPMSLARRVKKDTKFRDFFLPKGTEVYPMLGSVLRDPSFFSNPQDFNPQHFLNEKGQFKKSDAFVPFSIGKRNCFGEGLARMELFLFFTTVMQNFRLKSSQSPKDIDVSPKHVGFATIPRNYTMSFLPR
- Protocol: IC50 for inhibition of CYP2A6, coumarin hydroxylase activity (7-hydroxycoumarin fluorescence)
- Protocol conditions: Table 1B, structural analogs of CA
pIC50: −log10 of the molar value.
Please use t whenever pIC50 is not below 4, and f whenever it is.

>>> category_label("CCCCCC/C(C=O)=C\\c1ccccc1")
"t"
>>> category_label("O=C/C=C/c1ccc(Cl)cc1")
"t"
>>> category_label("CCN(CC)c1ccc(/C=C/C=O)cc1")
"f"
>>> category_label("O=C/C=C/c1ccc(Br)cc1")
"t"
>>> category_label("O=CC=C(c1ccccc1)c1ccccc1")
"f"
>>> category_label("CCCCC/C(C=O)=C/c1ccccc1")
"t"
>>> category_label("O=C/C=C/c1ccc(F)cc1")
"t"
>>> category_label("C/C(C=O)=C\\c1ccc(C(C)(C)C)cc1")
"f"
